Reference for the values: the supplement of paper PMC10065799

- System: c-Src;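 also: 11-residue human phosphosite peptides and single-mutation variants displayed on the E. coli surface, counted by deep sequencing, each peptide's frequency after selection divided by its frequency in the unselected input library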;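 also: frequency after pTyr selection over input frequency; kinase dosed for 20-30% of maximal phosphorylation in three min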
- assay text: phosphorylation enrichment, bacterial display (enrichment ratio); higher = better substrate or ligand; peptides without Tyr show the background
measured endpoint: phosphorylation enrichment

Enquiry: I have this sequence here, PELINYHQHNF [BTK_Y361_S366F] , and I need its recorded phosphorylation enrichment.
Return: 0.942

Enquiry: I have this sequence here, YSKTQYNQVPS [CXADR_Y318] , and I need its recorded phosphorylation enrichment.
Return: 0.387

Enquiry: I have this sequence here, EVASVYQSYQP [MAVS_Y92] , and I need its recorded phosphorylation enrichment.
Return: 7.09

Enquiry: I have this sequence here, RDWSLYFKIIE [KRT18_Y129_H128L] , and I need its recorded phosphorylation enrichment.
Return: 0.354

Enquiry: I have this sequence here, VGSIEYLKREW [KCNMA1_Y885] , and I need its recorded phosphorylation enrichment.
Return: 0.446

Enquiry: I have this sequence here, GLGGGCGGASG [KRT8_Y54_Y54C] , and I need its recorded phosphorylation enrichment.
Return: 0.404

Enquiry: I have this sequence here, AQRKLYRNVML [ZNF569_Y33] , and I need its recorded phosphorylation enrichment.
Return: 0.535
